Data credit: patent US20250027068

target: pooled human IgG (human IgG1,2,3 and 4)
# reported Enzyme Activity Endpoint Assay (purified): IgG; entries follow
Hi! Could you send only the number? It should be in ng/µL, unit omitted.

Reference set, count: 2
PRT-371 (protein) MSQTEDSESLQRLRDIEDFQAEKKKQNVVYTKWLDGVDVKDHDFRKIVDGNSAYYATPLLNGRGFYDINKDFNRDNDKCAAAVAANMFHYWLDRNRDNVDRFLRQNPEKHGIIELPDGQLKLSDFLNTYESDDGYRDKSKLFDFISENFNGPVWTDKLLDNYINGYAYNYKYGRTIEDSTKNTSKINFFKEVFNEKILTNNHSIRNQNEFSVLLIEALYTGKAIGLSYGPAGLRHSLGHIISVWGADLDADGNVVAIYVTDSDDKKLTIGDERVGLKRYKISTDDEGRLRLTAYEETHNTGGQIRGLWTLDTGKQAWADYFDKTEQTGTDQAEQ ... 0
PRT-358 (protein) MSQTEDSESLQRLRDIEDFQAEKKDQNVVYTKWLDGVDVKDHDFRKIVDGNIAYYATPLLNGRGWYDINKDFNRDSDKCAAAVAANMFHYWLDRNRDNVDRFLRQNPEKHGIIELPDGQLKLSDFLNTYESDDGYRDKSKLFDFISENFNGPVWTDKLLDNYINGYAYNYKYGRTIEDPTKNTSKINFFKEVFNEKILTNNHSIRNQNEFSVLLIEALYTGKAIGLSYGPAGLRHSLGHIISVWGADLDADGNVVAIYVTDSDDKKLTIGDERVGLKRYKISTDDEGRLRLTAYEETHNTGGQVRGLWTLDTGKQAWADYFDKTEQTGTDQAEQ ... 86

Could you please provide reported Enzyme Activity Endpoint Assay (purified): IgG for PRT-320 (protein) MTITSVWTKGVTPPTPEDFRENNEDVLHAPYVANQGWYDITKTFDGKDNLLCGAATAGNMLHWWFDQNKEEIERYLKKHPEKQKIIFGNQELFDVKAAIDTKDSQTNSKLFDYFRDKAFPNLSARQLGVMPDLVLDMFINGYYLNLGKTQSTDVNRPYQDKDKRGGIFDAVFTRGDQTTLLTARHDLKNKGLNEISDLIKQELTEGKALALSHTYANVRINHVINLWGADFDAEGNLIAIYVTDSDANASIGMKKYFVGRNANGKVAISAKKIEGDNIGAQVLGLFTLSTGQDQWQKLS ? Thanks! 53

Determine from records and report Enzyme Activity Endpoint Assay (purified): IgG for PRT-688 (protein) MQITSVWTKGVTPLTMDDFTINNEDVIHAPYVANQGWYDITKTFNGKDNLLCGAATAGNMLHWWFDQNKEEIERYLKKHPEKQKIIFNNQELFDLKEAINTKDSQTDSKLFNYFRDKAFPNLSARQLGVMPDLVLDMFINGYYLNVFKTQSTDVNRPYDTKDKRGGIFDHVFTRGDQSTLLTARHDLKNKTLKEISDIIKQELTEGKALALSHTYANVSISHVINLWGADFNAEGNLEAIYVTDSDANASIGMKKYYVGVNSHGKVAISAKKIEGENIGAQVLGLFTLSSGKDIWQKLSLEHHHHHH 1950

Look up Enzyme Activity Endpoint Assay (purified): IgG of PRT-374 (protein) MSQTEDSESLQRLRDIEDFQAEKKKQNVVYTKWLDGVDVKDHDFRKIVDGNEAYYATPLLNGRGFYDINKDFNRDNDKCAAAVAANMFHYWLDRNRDNVDRFLRQNPEKHGIIELPDGQLKLSDFLNTYESDDGYRDKSKLFDFISENFNGPVWTDKLLDNYINGYAYNYKYGRTIEDSTKNTSKINFFKEVFNEKILTNNHSIRNQNELSVLLSEALYTGKAIGLSYGPAGLRHSLGHIISVWGADLDADGNVVAIYVTDSDDKKLTIGDERVGLKRYKISTDDEGRLRLTAYEETHNTGGQIRGLWTLDTGKQAWADYFDKTEQTGTDQAEQ and report it. 0

Please report Enzyme Activity Endpoint Assay (purified): IgG for the following protein: PRT-510 (protein) MITSVWTKGVTPPTDFRKIVDGNIAYYHAPYKAGQGWYDITKAFDGGDDLLCGAATAGNMLHWWFDQNKEEIEAYLKKHPEKQKIMFGDQELLDVRKVINTKDSQTNSALFNYFKDKAFPNLSARRLGVMPDLVLDMFINGYYLNVYKTQTTDVNRTYQTKDRRGGIFDAVFTRGDQSKLLTERHDLKNKTLKEISDLIKQELTEGKALGLSHTYANVRINHVINLWGADFDSNGNLEAIYVTDSDSNASIGMKKYFVGVNSAGKVAISAKEIKEDNIGAQVLGLFTLSTGQDIWNQTNLEHHHHHH 0

Determine from records and report Enzyme Activity Endpoint Assay (purified): IgG for PRT-350 (protein) MSQTEDSESLQRLRDIEDFQAEKKDQNVVYTKWLDGVDVKDHDFRKIVDGNSAYYATPLLNGRGWYDINKDFNRDSDKCAAAVAANMFHYWLDINRDNVDRFLRQNPEKHGIIELPDGQLKLSDFLNTYESDHGYRDKSKLFDFISENFNGPVWTDKLLDNYINGYAYNYKYGRTIEDPTKNTSKINFFKEVFNEKILTNNHSIRNQNEFSVLLIEALYTGKAIGLSYGPAGLRHSLGHIISVWGADLDADGNVVAIYVTDSDDKKLTIGDERVGLKRYKISTDDENRLRLTAYEETHNTGGQVRGLWTLDTGKYAWADYFDKTEQTGTDQAEQ 668

Look up and state reported Enzyme Activity Endpoint Assay (purified): IgG for PRT-369 (protein) MSQTEDSESLQRLRDIEDFQAEKKDQNVVYTKWLDGVDVKDHDFRKIVDGNIAYYATPLLNGRGLYDINKDFNRDNDKCAAAVAANMFHYWLDRNRDNVDRFLRQNPEKHGIIELPDGQLKLSDFLNTYESDDGYRDKSKLFDFISENFNGPVWTDKLLDNYINGYAYNYKYGRTIEDSTKNTSKINFFKEVFNEKILTNNHSIRNQNELSVLLSEALYTGKAIGLSYGPAGLRHSLGHIISVWGADLDADGNVVAIYVTDSDDKKLTIGDERVGLKRYKISTDDEGRLRLTAYEETHNTGGQVRGLWTLDTGKQAWADYFDKTEQTGTDQAEQ 123
